test system: Ba/F3-EGFR-insSVD; assay: Ba/F3 cell survival assay, EGFR-insSVD; format: cell-based; conditions: read-out: BA/F3 (insSVD) IC50; cell viability, Cell Titer-Glo, 48 h, with 10 ng/mL EGF, without IL-3
READOUT NAME: IC50

compound="COc1c(Nc2c(-c3ccncc3OCC3CCO3)[nH]c3c2C(=O)NCC3)ccc(F)c1Cl (single isomer, unassigned; (+)) [Example 15]" tested_on=Ba/F3-EGFR-insSVD readout_name=IC50 result="168 nM"
compound="COc1c(Br)cccc1Nc1c(-c2ccncc2OCC2CCO2)[nH]c2c1C(=O)NCC2 (single isomer, unassigned) [Example 34]" tested_on=Ba/F3-EGFR-insSVD readout_name=IC50 result="20.4 nM"
compound="COc1c(F)cccc1Nc1c(-c2ccncc2OCCC2CCO2)[nH]c2c1C(=O)NCC2 (single isomer, unassigned) [Example 45]" tested_on=Ba/F3-EGFR-insSVD readout_name=IC50 result="46.4 nM"

###

Biological target: human Bub1 (Homo sapiens (Human), UniProt O43683)
Sequence (O43683 704-1085): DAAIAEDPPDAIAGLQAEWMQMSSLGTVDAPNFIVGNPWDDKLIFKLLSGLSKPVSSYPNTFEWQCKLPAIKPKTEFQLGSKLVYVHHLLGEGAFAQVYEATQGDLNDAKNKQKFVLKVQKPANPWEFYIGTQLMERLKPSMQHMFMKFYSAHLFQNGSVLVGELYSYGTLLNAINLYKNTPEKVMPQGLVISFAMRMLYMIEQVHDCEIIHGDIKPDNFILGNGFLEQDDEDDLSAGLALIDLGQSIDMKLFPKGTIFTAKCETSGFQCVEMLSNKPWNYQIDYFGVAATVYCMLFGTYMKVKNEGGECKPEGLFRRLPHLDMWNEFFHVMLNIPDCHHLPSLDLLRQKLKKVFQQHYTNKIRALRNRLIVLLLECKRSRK
Assay: Bub1 high ATP kinase assay (TR-FRET)
Type: biochemical
Conditions: read-out: Bub1 high ATP (2 mM) IC50; 2 mM ATP
Source text: Bub1-inhibitory activity of compounds of the present invention at a high ATP concentration was quantified employing the Bub1 TR-FRET high ATP kinase assay as described in the following paragraphs. N-terminally His6-tagged recombinant catalytic domain of human Bub1 (amino acids 704-1085), expressed in insect cells (Hi5) and purified by Ni-NTA affinity chromatography and subsequent size exclusion chromatography, was used as enzyme.
pIC50: −log10 of the molar value.
READOUT NAME: pIC50

compound="COc1c(Cl)cccc1Nc1c(-c2ccncc2OC[C@@H]2CCO2)[nH]c2c1C(=O)NCC2 [Example 2]" reported_relation=< readout_number=4.70
compound="O=C1NCCc2[nH]c(-c3ccncc3OCC3CCO3)c(Nc3cccc(Cl)c3Cl)c21 (racemic) [Example 10]" reported_relation== readout_number=4.86
compound="Cc1c(Cl)cccc1Nc1c(-c2ccncc2OC[C@]2(C)CCO2)[nH]c2c1C(=O)NCC2 (single isomer, unassigned) [Example 82]" reported_relation== readout_number=5.22
compound="O=C1NCCc2[nH]c(-c3ccncc3OCC3CCO3)c(Nc3cccc(Cl)c3Cl)c21 (single isomer, unassigned; (+)) [Example 11]" reported_relation=< readout_number=4.70
compound="CC1(C)COC1COc1cnccc1-c1[nH]c2c(c1Nc1cccc(Cl)c1OC(F)F)C(=O)NCC2 (racemic) [Example 71]" reported_relation=< readout_number=4.70
compound="Cc1c(F)cccc1Nc1c(-c2ccncc2OCC2(C)CCO2)[nH]c2c1C(=O)NCC2 (single isomer, unassigned; (+)) [Example 85]" reported_relation== readout_number=4.80
compound="CC1(C)COC1COc1cnccc1-c1[nH]c2c(c1Nc1cccc(Cl)c1OC(F)F)C(=O)NCC2 (single isomer, unassigned) [Example 73]" reported_relation=< readout_number=4.70
compound="Cc1c(Cl)cccc1Nc1c(-c2ccncc2OC[C@@H]2CCO2)[nH]c2c1C(=O)NCC2 [Example 8]" reported_relation== readout_number=5.12
compound="COc1c(F)cccc1Nc1c(-c2ccncc2OCC2CCO2)[nH]c2c1C(=O)NCC2 (racemic) [Example 4]" reported_relation== readout_number=4.76

###

target: human Bub1 (Homo sapiens (Human), UniProt O43683); assay: Bub1 high ATP kinase assay (TR-FRET); assay type: biochemical; conditions: Bub1 high ATP (2 mM) IC50, 2 mM ATP
IC50 for assorted compounds
READOUT NAME: IC50 (µM)

compound="Cc1c(Cl)cc(F)cc1Nc1c(-c2ccncc2OCC2CCO2)[nH]c2c1C(=O)NCC2 (single isomer, unassigned) [Example 42]" u=µM reported_relation=> readout_number=20
compound="COc1c(Br)cccc1Nc1c(-c2ccncc2OCC2CCO2)[nH]c2c1C(=O)NCC2 (single isomer, unassigned) [Example 35]" u=µM reported_relation== readout_number=4.97
compound="O=C1NCCc2[nH]c(-c3ccncc3OCCC3CCO3)c(Nc3cccc(Cl)c3Cl)c21 (single isomer, unassigned) [Example 64]" u=µM reported_relation== readout_number=5.38
compound="CC1(COc2cnccc2-c2[nH]c3c(c2Nc2cccc(Cl)c2OC(F)F)C(=O)NCC3)CCO1 (single isomer, unassigned) [Example 75]" u=µM reported_relation=> readout_number=20

###

system: Ba/F3-EGFR-L858R; experiment: Ba/F3 cell survival assay, EGFR L858R; format: cell-based; settings: 48 h, read-out: BA/F3 (EGFR L858R) IC50
READOUT NAME: IC50 (nM)

compound="COc1c(Cl)cccc1Nc1c(-c2ccncc2OCC2(C)CCO2)[nH]c2c1C(=O)NCC2 (single isomer, unassigned; (+)) [Example 48]" readout_name=IC50 u=nM readout_number=1.28
compound="COc1c(Cl)cccc1Nc1c(-c2ccncc2OCC2OCC2(C)C)[nH]c2c1C(=O)NCC2 (single isomer, unassigned; (+)) [Example 50]" readout_name=IC50 u=nM readout_number=1.62
compound="COc1c(Cl)cccc1Nc1c(-c2ccncc2OCCC2CCO2)[nH]c2c1C(=O)NCC2 (single isomer, unassigned; (-)) [Example 26]" readout_name=IC50 u=nM readout_number=0.813
compound="COc1c(Cl)cccc1Nc1c(-c2ccncc2OC[C@@H]2CCO2)[nH]c2c1C(=O)NCC2 [Example 2]" readout_name=IC50 u=nM readout_number=1.2

###

molecular target: human Bub1 (Homo sapiens (Human), UniProt O43683); experiment: Bub1 high ATP kinase assay (TR-FRET); type: biochemical; conditions: read-out: Bub1 high ATP (2 mM) IC50; 2 mM ATP
pIC50: −log10 of the molar value.
READOUT NAME: pIC50

molecule="Cc1cccc(Nc2c(-c3ccncc3OCC3(C)CCO3)[nH]c3c2C(=O)NCC3)c1Cl (single isomer, unassigned; (+)) [Example 56]" reported_relation== readout_number=4.79
molecule="Cc1cccc(Nc2c(-c3ccncc3OCCC3CCO3)[nH]c3c2C(=O)NCC3)c1Cl (stereo not drawn) [Example 62]" reported_relation== readout_number=5.28
molecule="CCC1(COc2cnccc2-c2[nH]c3c(c2Nc2cccc(C)c2Cl)C(=O)NCC3)COC1 [Example 86]" reported_relation=< readout_number=5.24
molecule="CCc1c(Cl)cccc1Nc1c(-c2ccncc2OCC2CCO2)[nH]c2c1C(=O)NCC2 (stereo not drawn) [Example 77]" reported_relation== readout_number=5.75
molecule="COc1c(F)cccc1Nc1c(-c2ccncc2OC[C@@H]2CCO2)[nH]c2c1C(=O)NCC2 [Example 5]" reported_relation=< readout_number=4.70
molecule="COc1c(Br)cccc1Nc1c(-c2ccncc2OCC2CCO2)[nH]c2c1C(=O)NCC2 (racemic) [Example 33]" reported_relation== readout_number=5.09
molecule="CCC1(COc2cnccc2-c2[nH]c3c(c2Nc2cccc(Cl)c2OC)C(=O)NCC3)COC1 [Example 22]" reported_relation== readout_number=5.42
molecule="O=C1NCCc2[nH]c(-c3ccncc3OCC3CCO3)c(Nc3cccc4c3CCC4)c21 (stereo not drawn) [Example 36]" reported_relation=< readout_number=4.70
molecule="COc1c(F)cccc1Nc1c(-c2ccncc2OCC2COC2)[nH]c2c1C(=O)NCC2 [Example 18]" reported_relation== readout_number=4.92
molecule="COc1c(F)cccc1Nc1c(-c2ccncc2OCC2OCC2(C)C)[nH]c2c1C(=O)NCC2 (racemic) [Example 52]" reported_relation=< readout_number=4.70
molecule="O=C1NCCc2[nH]c(-c3ccncc3OCCC3CCO3)c(Nc3cccc(Cl)c3Cl)c21 (single isomer, unassigned) [Example 63]" reported_relation== readout_number=5.26
molecule="COc1c(Cl)cccc1Nc1c(-c2ccncc2OCCC2CCO2)[nH]c2c1C(=O)NCC2 (single isomer, unassigned; (+)) [Example 25]" reported_relation== readout_number=5.97
molecule="Cc1cccc(Nc2c(-c3ccncc3OCC3CCO3)[nH]c3c2C(=O)NCC3)c1Cl (single isomer, unassigned; (+)) [Example 38]" reported_relation=< readout_number=4.70
molecule="COc1c(Cl)cc(F)cc1Nc1c(-c2ccncc2OCC2(C)CCO2)[nH]c2c1C(=O)NCC2 (racemic) [Example 68]" reported_relation=< readout_number=4.70
molecule="Cc1cccc(Nc2c(-c3ccncc3OCC3CCO3)[nH]c3c2C(=O)NCC3)c1Cl (single isomer, unassigned; (-)) [Example 39]" reported_relation== readout_number=5.08

###

target: mutEGFR (D770_N771insSVD) (Homo sapiens (Human), UniProt P00533, INS770SVD); assay: biochemical; conditions: mutEGFR (D770_N771 insSVD) at 2 mM ATP IC50, 2 mM ATP
Sequence (P00533 other isoform, or with tags, fused parts or gaps ins SVD behind 770): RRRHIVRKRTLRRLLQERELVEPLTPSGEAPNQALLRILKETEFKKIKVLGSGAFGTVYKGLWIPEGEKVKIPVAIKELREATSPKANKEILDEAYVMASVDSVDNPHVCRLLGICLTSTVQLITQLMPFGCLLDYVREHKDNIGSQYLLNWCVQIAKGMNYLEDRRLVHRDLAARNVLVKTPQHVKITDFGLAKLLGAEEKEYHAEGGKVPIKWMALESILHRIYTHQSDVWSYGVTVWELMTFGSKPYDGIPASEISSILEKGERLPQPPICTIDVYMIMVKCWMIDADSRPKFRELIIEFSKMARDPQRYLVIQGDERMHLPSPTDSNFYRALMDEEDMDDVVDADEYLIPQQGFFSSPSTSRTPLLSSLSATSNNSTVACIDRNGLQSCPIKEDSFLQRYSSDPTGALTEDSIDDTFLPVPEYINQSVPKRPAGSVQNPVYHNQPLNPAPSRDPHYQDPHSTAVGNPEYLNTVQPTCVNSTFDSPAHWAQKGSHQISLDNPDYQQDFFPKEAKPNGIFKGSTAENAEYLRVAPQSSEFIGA
Could you mark each record Satisfied if its IC50 falls strictly under 0.3 nM, and Not satisfied if it equals or exceeds it?

compound=CCC1(COc2cnccc2-c2[nH]c3c(c2Nc2cccc(Cl)c2C)C(=O)NCC3)COC1 cat="Not satisfied"
compound="Cc1cccc(Nc2c(-c3ccncc3OCC3(C)CCO3)[nH]c3c2C(=O)NCC3)c1Cl (racemic) [Example 55]" cat=Satisfied
compound="Cc1c(Cl)cccc1Nc1c(-c2ccncc2OCC2(C)CCO2)[nH]c2c1C(=O)NCC2 (single isomer, unassigned; (-)) [Example 81]" cat=Satisfied
compound="COc1c(Cl)cc(F)cc1Nc1c(-c2ccncc2OCC2(C)CCO2)[nH]c2c1C(=O)NCC2 (single isomer, unassigned) [Example 69]" cat="Not satisfied"
compound="Cc1c(Cl)cccc1Nc1c(-c2ccncc2OC[C@]2(C)CCO2)[nH]c2c1C(=O)NCC2 (single isomer, unassigned)" cat=Satisfied
compound=COc1c(Cl)cccc1Nc1c(-c2ccncc2OC[C@@H]2CCN2C)[nH]c2c1C(=O)NCC2 cat="Not satisfied"
compound=COc1c(Cl)cccc1Nc1c(-c2ccncc2OC[C@H]2CCN2CC(F)(F)F)[nH]c2c1C(=O)NCC2 cat="Not satisfied"
compound="Cc1c(F)cccc1Nc1c(-c2ccncc2OCC2(C)CCO2)[nH]c2c1C(=O)NCC2 (single isomer, unassigned; (+)) [Example 85]" cat=Satisfied
